# Tested on: Fibroblast
# assay-procedure: Multiplex assay against human fibroblast
# Assay type: toxicity, cell-based
# measurement-conditions: 12 h, 1 µM, compound concentration 1 uM, replicate 2
The following compounds are shown together with reported Population Apoptotic (%) values.

// solved cases for Population Apoptotic (%) follow
compound: Cc1[nH]c(/C=C2\C(=O)Nc3ccc(S(=O)(=O)N(C)c4cccc(Cl)c4)cc32)c(C)c1C(=O)N1CCN(C)CC1
readout-name: Population Apoptotic (%)
meas-value: 100%
//
compound: CNc1nc(NCc2ccc(NS(C)(=O)=O)cc2Cl)cc(-c2ccccn2)n1
readout-name: Population Apoptotic (%)
meas-value: 33%
//
compound: C=CC(=O)Nc1cccc(C(=O)Nc2ccc(Nc3cc(-c4[nH]c(SC)nc4C)ccn3)cc2)c1
readout-name: Population Apoptotic (%)
meas-value: 0%
//
compound: CCN(CC)CCCCNc1ncc2cc(-c3cc(OC)cc(OC)c3)c(NC(=O)NC(C)(C)C)nc2n1
readout-name: Population Apoptotic (%)
meas-value: 67%
//
compound: COc1cccc([C@@H](C)NCCCc2ccccc2Cl)c1.Cl [TECALCET HYDROCHLORIDE]
readout-name: Population Apoptotic (%)
meas-value: 16%
//
compound: c1cn2cc(-c3ccc4cn[nH]c4c3)nc(Nc3ccc(N4CCOCC4)cc3)c2n1
readout-name: Population Apoptotic (%)
meas-value: 40%
//
compound: CN(C)CC#Cc1ccc(OCCCc2sc(N3CCc4cccc(C(=O)Nc5nc6ccccc6s5)c4C3)nc2C(=O)O)c(F)c1
readout-name: Population Apoptotic (%)
meas-value: 66%
//
compound: Cc1nc(-c2ccc(-c3ccc(C(=O)N4CCc5cc6c(cc54)C4(CCN(C)CC4)CO6)cc3)c(C)c2)no1
readout-name: Population Apoptotic (%)
meas-value: 28%
//
compound: CC[C@H](C)C(=O)O[C@H]1C[C@@H](C)C=C2C=C[C@H](C)[C@H](CC[C@@H]3C[C@@H](O)CC(=O)O3)[C@H]21
readout-name: Population Apoptotic (%)
meas-value: 25%
//
compound: CN1CCN(CCOc2cc(OC3CCOCC3)c3c(Nc4c(Cl)ccc5c4OCO5)ncnc3c2)CC1
readout-name: Population Apoptotic (%)
meas-value: 70%

Asked: Give recorded Population Apoptotic (%). O=C1NCN(c2ccccc2)C12CCN(CCCOc1ccc(F)cc1)CC2 [SPIRAMIDE]
Given back: 0%

Asked: Give recorded Population Apoptotic (%). `CN1CCN(c2ccc(OC(F)(F)F)c(Nc3ncc4c(n3)-c3c(c(C(N)=O)nn3CCO)CC4)c2)CC1`
Given back: 25%

Asked: Give recorded Population Apoptotic (%). `COc1ncc(-c2ccc3nccc(-c4ccnnc4)c3c2)cc1NS(=O)(=O)c1ccc(F)cc1F`
Given back: 50%

Asked: Give recorded Population Apoptotic (%). `Cc1c(-c2ccc(O)cc2)n(Cc2ccc(OCCN3CCCCCC3)cc2)c2ccc(O)cc12`
Given back: 0%

###

# System: Fibroblast
# assay-procedure: Multiplex assay against human fibroblast
# Type: toxicity, cell-based
# measurement-conditions: 24 h, 10 µM, compound concentration 10 uM, replicate 1
readout-name: Population Apoptotic (%)
Reply with just the number (in %).

// solved cases for Population Apoptotic (%) follow
compound: CN1CCN(CCOc2cc(OC3CCOCC3)c3c(Nc4c(Cl)ccc5c4OCO5)ncnc3c2)CC1
measurement-units: %
Population Apoptotic (%): 50
--
compound: C=CC(=O)Nc1cccc(C(=O)Nc2ccc(Nc3cc(-c4[nH]c(SC)nc4C)ccn3)cc2)c1
measurement-units: %
Population Apoptotic (%): 30
--
compound: Cc1c(-c2ccc(O)cc2)n(Cc2ccc(OCCN3CCCCCC3)cc2)c2ccc(O)cc12
measurement-units: %
Population Apoptotic (%): 62

Asked: Give recorded Population Apoptotic (%). CN(C)C(=O)N[C@H]1CC[C@H](CCN2CCN(c3cccc(Cl)c3Cl)CC2)CC1.Cl [CARIPRAZINE HYDROCHLORIDE]
Given back: 70

Data origin, for the record: ChEMBL document CHEMBL4689842
